meta.source: patent US20190300590A1

Target: T1, IL23R_huFC (human, UniProt Q5VWK5 24-353)
T1 sequence (looked up): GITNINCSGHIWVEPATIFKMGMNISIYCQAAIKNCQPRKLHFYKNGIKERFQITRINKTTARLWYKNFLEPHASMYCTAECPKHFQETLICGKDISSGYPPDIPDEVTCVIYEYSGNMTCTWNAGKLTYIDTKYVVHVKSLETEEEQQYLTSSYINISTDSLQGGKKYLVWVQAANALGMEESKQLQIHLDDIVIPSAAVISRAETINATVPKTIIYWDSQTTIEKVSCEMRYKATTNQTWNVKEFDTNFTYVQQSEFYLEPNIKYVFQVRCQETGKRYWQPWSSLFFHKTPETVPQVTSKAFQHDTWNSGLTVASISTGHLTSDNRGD
Test: human ELISA vs IL-23
*1 amine or outer side, *2 acyl side, *3 side chain or, on linkers, in order; H or OH if unused. Bridges are numbered along the chain shown (N, C = ends). Primed or numbered codes have the meaning given here. [ ]: non-standard residue; d: D form. Phe(4-OMe)(3) = O-methyl-L-tyrosine (4-methoxy-L-phenylalanine), COc1ccc(C[C@H](N[*:1])C(=O)[*:2])cc1; Phe(4-tBu) = CC(C)(C)c1ccc(C[C@H](N)C(=O)O)cc1; 2Nal = N[C@@H](Cc1ccc2ccccc2c1)C(=O)O; AEF = NCCOc1ccc(C[C@H](N)C(=O)O)cc1; hLeu = CC(C)CC[C@H](N)C(=O)O; αMeK = C[C@](N)(CCCCN)C(=O)O; Abu = CC[C@H](N)C(=O)O; Aib = CC(C)(N)C(=O)O; βAla = NCCC(=O)O
# IC50 per record follows

{"binder": "Ac-[Abu]QTWQC[AEF][2Nal][hLeu]K(Ac)N[βAla]-NH2 (thioether 1-6) [Ac-Cyclo-[[Abu]-QTWQC]-[Phe[4-(2-aminoethoxy)]]-[2-Nal]-[hLeu]-[Lys(Ac)]-N-[βAla]-NH2]", "IC50": "< 10 nM"}
{"binder": "Ac-[Abu]QTWQC[Phe(4-OMe)(3)][Phe(4-tBu)][αMeK]ENG-NH2 (thioether 1-6) [Ac-Cyclo-[[Abu]-QTWQC]-[Phe(4-OMe)]-[Phe(4-tBu)]-[α-MeLys]-ENG-NH2]", "IC50": "> 1000 nM"}
{"binder": "Ac-[Abu]QTWQC[AEF][2Nal][Aib]KNG-NH2 (thioether 1-6) [Ac-Cyclo-[[Abu]-QTWQC]-[Phe[4-(2-aminoethoxy)]]-[2-Nal]-[Aib]-KNG-NH2]", "IC50": "< 10 nM"}
